Measured Target: PfBDP1-BRD (Plasmodium falciparum, UniProt Q8IJ72)
Sequence (Q8IJ72 entry or part of it): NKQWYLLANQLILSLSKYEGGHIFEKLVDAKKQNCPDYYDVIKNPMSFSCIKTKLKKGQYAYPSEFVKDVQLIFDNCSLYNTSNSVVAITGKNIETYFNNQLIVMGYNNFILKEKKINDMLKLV
Test Protocol: Isothermal titration calorimetry (ITC) with PfBDP1-BRD
Assay type: binding
Run Parameters: 25 °C, PBS pH 7.4, read-out: K D
Readout: Kd (µM)

These recorded examples may help you get a feel for the data.
Molecular String: Cc1[nH]c(-c2ccc(C#N)cc2)c2c1C(=O)CCCC2
Readout: Kd
Reported Value: 4.54
--
Molecular String: Cc1[nH]c(-c2cccc(N(C)C)c2)c2c1C(=O)CCCC2
Readout: Kd
Reported Value: 8.03
--
Molecular String: CCc1ccccc1-c1[nH]c(C)c2c1CCCCC2=O
Readout: Kd
Reported Value: 9.17
--
Molecular String: Cc1[nH]c(-c2cccc([N+](=O)[O-])c2)c2c1C(=O)CCCC2
Readout: Kd
Reported Value: 16.9
--
Molecular String: Cc1[nH]c(-c2cccc(NS(C)(=O)=O)c2)c2c1C(=O)CCCC2
Readout: Kd
Reported Value: 4.7

[a] CNC(=O)c1ccc(-c2[nH]c(C)c3c2CCCCC3=O)cc1
[b] Cc1[nH]c(-c2ccc(C(=O)N(C)C)cc2)c2c1C(=O)CCCC2
[c] CNc1cccc(-c2[nH]c(C)c3c2CCCCC3=O)c1
In: Please put the entries in order of rising Kd. Answer by naming the labels in the order asked.
Out: a, c, b

[a] Cc1[nH]c(-c2ccc(C(N)=O)cc2)c2c1C(=O)CCCC2
[b] CC(=O)Nc1cccc(-c2[nH]c(C)c3c2CCCCC3=O)c1
In: Of a and b , which carries the smaller reported Kd figure? // caller expects the label of the chosen entry
Out: a

* * *

Measured Target: PfBDP1-BRD (Plasmodium falciparum)
Test Protocol: Isothermal titration calorimetry (ITC) with PfBDP1-BRD
Type: binding
Run Parameters: K D, 25 °C, PBS pH 7.4
Readout: pKd
pKd is a log-scale quantity: -log10 of the concentration expressed in molar.

In: Would you mind telling me what pKd value was observed for Cc1[nH]c(-c2cc(N)ccc2Cl)c2c1C(=O)CCCC2 [MPM6, reference compound] ?
Out: 5.34

* * *

Measured Target: PfBDP1-BRD (Plasmodium falciparum)
Test Protocol: Isothermal titration calorimetry (ITC) with PfBDP1-BRD
Format: binding
Run Parameters: 25 °C, PBS pH 7.4, read-out: K D
Readout: Kd (µM)

These recorded examples may help you get a feel for the data.
Molecular String: Cc1ccc(NS(C)(=O)=O)cc1-c1[nH]c(C)c2c1CCCCC2=O
Quantity Unit: µM
Kd: 8.17
--
Molecular String: Cc1[nH]c(-c2cccc(C(N)=O)c2)c2c1C(=O)CCCC2
Quantity Unit: µM
Kd: 7.45

[P] Cc1[nH]c(-c2ccc(S(N)(=O)=O)cc2)c2c1C(=O)CCCC2
[Q] Cc1[nH]c(-c2cccc(NS(C)(=O)=O)c2C)c2c1C(=O)CCCC2
[R] Cc1ccc(-c2[nH]c(C)c3c2CCCCC3=O)cc1
In: Returns the items ordered by Kd, from maximum to minimum. Answer by naming the labels in the order asked.
Out: R, P, Q

[A] COc1ccccc1-c1[nH]c(C)c2c1CCCCC2=O
[B] Cc1cc(C#N)ccc1-c1[nH]c(C)c2c1CCCCC2=O
In: From the recorded data, which exceeds the other in Kd: A or B ? // caller expects the label of the chosen entry
Out: A
(A: 7.13 µM, B: 2.34 µM)
